# credit: paper PMC4557015

# TESTED_SYSTEM: Trypanosoma brucei farnesyltransferase (Trypanosoma brucei, UniProt Q57U08+Q580J3)
# Sequence (Q580J3 entry or part of it): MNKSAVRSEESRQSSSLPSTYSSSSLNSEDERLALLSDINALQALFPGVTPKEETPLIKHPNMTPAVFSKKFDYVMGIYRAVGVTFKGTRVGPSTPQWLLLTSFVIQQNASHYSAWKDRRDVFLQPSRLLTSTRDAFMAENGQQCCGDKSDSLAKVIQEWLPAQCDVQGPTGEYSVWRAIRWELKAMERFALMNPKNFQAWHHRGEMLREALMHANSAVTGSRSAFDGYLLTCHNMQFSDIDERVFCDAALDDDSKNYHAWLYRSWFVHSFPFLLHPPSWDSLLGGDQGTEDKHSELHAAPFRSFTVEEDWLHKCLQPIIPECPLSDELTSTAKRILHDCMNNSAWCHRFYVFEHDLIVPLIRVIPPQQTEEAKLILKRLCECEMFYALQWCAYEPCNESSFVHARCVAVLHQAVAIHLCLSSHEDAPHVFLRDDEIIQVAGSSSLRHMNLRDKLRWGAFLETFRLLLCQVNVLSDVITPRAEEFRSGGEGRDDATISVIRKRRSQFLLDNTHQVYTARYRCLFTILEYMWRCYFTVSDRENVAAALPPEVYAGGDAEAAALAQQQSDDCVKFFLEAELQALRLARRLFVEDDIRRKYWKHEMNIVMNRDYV
# Sequence (Q57U08 entry or part of it): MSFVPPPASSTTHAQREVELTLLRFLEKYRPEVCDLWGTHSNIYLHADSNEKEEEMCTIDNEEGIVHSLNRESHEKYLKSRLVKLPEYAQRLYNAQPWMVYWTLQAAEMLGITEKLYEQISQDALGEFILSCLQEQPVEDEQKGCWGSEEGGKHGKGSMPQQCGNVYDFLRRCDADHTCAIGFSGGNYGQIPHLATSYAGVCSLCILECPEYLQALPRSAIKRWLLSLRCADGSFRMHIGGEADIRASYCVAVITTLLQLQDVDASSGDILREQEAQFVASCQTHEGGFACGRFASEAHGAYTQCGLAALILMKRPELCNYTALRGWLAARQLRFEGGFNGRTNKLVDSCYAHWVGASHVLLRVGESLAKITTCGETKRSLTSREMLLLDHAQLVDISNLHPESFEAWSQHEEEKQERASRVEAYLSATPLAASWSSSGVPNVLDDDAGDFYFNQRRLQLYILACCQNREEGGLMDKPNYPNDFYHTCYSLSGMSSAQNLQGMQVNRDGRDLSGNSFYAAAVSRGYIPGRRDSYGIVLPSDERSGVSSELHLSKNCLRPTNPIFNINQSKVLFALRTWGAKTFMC
# EXPERIMENTAL_DETAILS: Anti-farnesyltransferase assay (T. brucei)
# Format: biochemical
# REPORTED_CONDITIONS: average of three assays; read-out: FTase (T. b.) IC50
In this section, each of the molecules is paired with its reported IC50.
# do not omit the unit; it follows the number

// query Kindly state the measured IC50 obtained for CC(C)=CCC/C(C)=C/Cc1cc(O)cc2c1OC(/C=C(\C)CCC=C(C)C)C1=C2C(=O)C=CC1=O (stereo not drawn) with Trypanosoma brucei farnesyltransferase (Trypanosoma brucei, UniProt Q57U08+Q580J3).
// result 3900 nM

// query Now this one: CC(C)=CCC/C(C)=C/Cc1cc2c(cc1O)C1=C(C(=O)C3=C(C1=O)S(=O)(=O)CCN3)C(/C=C(\C)CCC=C(C)C)O2 (stereo not drawn)
// result 98 nM

// query Another molecule to look at: CC(C)=CCC/C(C)=C/Cc1cc(O)cc2c1OC(/C=C(\C)CCC=C(C)C)C1=C2C(=O)C2=C(NCCS2(=O)=O)C1=O (stereo not drawn)
// result 220 nM

// query And the next one, CC(C)=CCC/C(C)=C/Cc1cc(O)cc2c1OC(/C=C(\C)CCC=C(C)C)C1=C2C(=O)C2=C(C1=O)S(=O)(=O)CCN2 (stereo not drawn) ?
// result 740 nM

// query # iterate: CC(C)=CCC/C(C)=C/Cc1cc2c(cc1O)C1=C(C(=O)C3=C(NCCS3(=O)=O)C1=O)C(/C=C(\C)CCC=C(C)C)O2 (stereo not drawn)
// result 3040 nM

// query Can you handle CSCC[C@H](NC(=O)c1ccc(NC[C@@H](N)CS)cc1-c1ccccc1)C(=O)O [FTI 276, reference compound] next?
// result 10 nM

---

# TESTED_SYSTEM: Trypanosoma brucei farnesyltransferase (Trypanosoma brucei, UniProt Q57U08+Q580J3)
# EXPERIMENTAL_DETAILS: Anti-farnesyltransferase assay (T. brucei)
# Assay type: biochemical
REPORTED_PROPERTY: IC50 (µM)
Numeric answer only, unit µM assumed.

// query Would you mind telling me what IC50 value was observed for CC(C)=CCC/C(C)=C/Cc1cc2c(cc1O)C1=C(C(=O)C=CC1=O)C(/C=C(\C)CCC=C(C)C)O2 (stereo not shown) ?
// result 6.16

---

Consider the following compounds and their measured IC50 readings.
# TESTED_SYSTEM: Human farnesyltransferase (Homo sapiens, UniProt P49354+P49356)
# EXPERIMENTAL_DETAILS: Anti-farnesyltransferase assay (human)
# REPORTED_CONDITIONS: average of three assays; read-out: FTase (H) IC50
The reply should be a number in nM, with the unit left off.

CC(C)=CCC/C(C)=C/Cc1cc2c(cc1O)C1=C(C(=O)C3=C(NCCS3(=O)=O)C1=O)C(/C=C(\C)CCC=C(C)C)O2 (stereo not drawn) [Compound 2, thiaplidiaquinone B]; 1220
CC(C)=CCC/C(C)=C/Cc1cc(O)cc2c1OC(/C=C(\C)CCC=C(C)C)C1=C2C(=O)C2=C(NCCS2(=O)=O)C1=O (stereo not drawn) [Compound 3]; 140
CC(C)=CCC/C(C)=C/Cc1cc(O)cc2c1OC(/C=C(\C)CCC=C(C)C)C1=C2C(=O)C=CC1=O (stereo not drawn) [Compound 5]; 3700

// query For CC(C)=CCC/C(C)=C/Cc1cc2c(cc1O)C1=C(C(=O)C=CC1=O)C(/C=C(\C)CCC=C(C)C)O2 (stereo not drawn) [Compound 6] , what is its reported IC50?
// result 1640

// query Then what about the compound CC(C)=CCC/C(C)=C/Cc1cc2c(cc1O)C1=C(C(=O)C3=C(C1=O)S(=O)(=O)CCN3)C(/C=C(\C)CCC=C(C)C)O2 (stereo not drawn) [Compound 4] ?
// result 54

// query Now try CC(C)=CCC/C(C)=C/Cc1cc(O)cc2c1OC(/C=C(\C)CCC=C(C)C)C1=C2C(=O)C2=C(C1=O)S(=O)(=O)CCN2 (stereo not drawn) [Compound 1, thiaplidiaquinone A] .
// result 780
